Reported melting point is given for each of the following molecules.

Example results:
# melting point (molecule: "CN1C(=O)C(C)(C)CCc2cc(C(=O)O)ccc21" ) is 240 to 241 °C

# melting point (molecule: "CCOc1ccc(F)c(N2Cc3cnc(NCCCCN(CC)CC)nc3N(C3CCCC3)C2=O)c1F" ) is 129 to 130 °C

# melting point (molecule: "COc1ccc2c(c1)C(=C1CCN(C)CC1)c1ccccc1C=C2" ) is 112 to 114 °C

# melting point (molecule: "CCOC(=O)c1cc2cc3c(cc2oc1=O)OCO3" ) is 200 to 201 °C

# melting point (molecule: "COc1ccccc1C(=O)Nc1ccc(Cl)cc1" ) is 56.1 to 58.7 °C

New cases:
# melting point (molecule: "CCCCCCCCN(C(=O)Nc1ccc(C(=O)O)cc1)c1ccc2c(c1)C(C)(C)CCC2(C)C" ) is 166 to 167 °C

# melting point (molecule: "CCCCc1c(C(=O)c2ccc(OCCCN(CCCC)CCCC)cc2)[nH]c2ccc([N+](=O)[O-])cc12" ) is 80 °C

# melting point (molecule: "CC(C)Nc1cc(Cl)nc(Cl)n1" ) is 69 to 70 °C

# melting point (molecule: "CCOc1nn(C)c(C(F)(F)F)c1CS(=O)(=O)C1=NOC(C)(C)C1" ) is 124 to 125 °C

# melting point (molecule: "Cc1ccc(Sc2cncc3sc(C=NOCC(=O)O)cc23)cc1" ) is 227 to 230 °C

# melting point (molecule: CC(O)(CSc1ccc(S(=O)(=O)c2ccccc2)cc1)C(F)(F)F (stereo unspecified) ) is 100 to 102 °C

# melting point (molecule: "CCOC(=O)C1=C2Nc3ccccc3N2CC1" ) is 269 to 271 °C

# melting point (molecule: "COc1ccc(-c2nc(C(C)=O)c[nH]2)cc1" ) is 248 to 250 °C

# melting point (molecule: CCc1nc2c(C)cc(C)nc2n1Cc1ccc(C(c2ccccc2)C(Br)C(=O)O)cc1 (stereo unspecified) ) is 117 to 126 °C

# melting point (molecule: "CC1(C)OC(=C(C#N)C#N)C(C#N)=C1c1ccc(F)cc1" ) is 263 °C

----------
observable: melting point

Example results:
# melting point (compound: "CC(=O)NC[C@H]1CN(c2ccc(C3CCN(C(=O)COCc4ccccc4)CC3)c(F)c2)C(=O)O1" ) is 147 to 149 °C

# melting point (compound: "CN(C)c1ccc2nnc(-c3ncc([N+](=O)[O-])n3C)n2n1" ) is 233 to 236 °C

# melting point (compound: NCCNCC(O)COc1ccccc1C(N)=O (stereo not given) ) is 91 to 93 °C

# melting point (compound: "CCOC(=O)C(C#N)=Cc1ccc(OCCc2nc(-c3ccccc3Cl)oc2C)cc1" ) is 120 to 121 °C

# melting point (compound: "CC1(C(=O)Nc2ccc(OCC3CC3)c(C(F)(F)F)c2)CC1" ) is 84 to 85 °C

New cases:
# melting point (compound: "CN1CCN(c2cccc(Nc3cc(NC(=O)Nc4c(Cl)cccc4Cl)ncn3)c2)CC1" ) is 209 to 212 °C

# melting point (compound: COc1ccc(C(CC2=NOC(=O)C2)c2ccccc2)cc1OC1CCCC1 (stereo not given) ) is 137 to 139 °C

# melting point (compound: "Cn1cnc(COc2nn3c(-c4ccccc4F)nnc3cc2C2(C)CCC(F)(F)CC2)n1" ) is 193 °C

# melting point (compound: "CCOC(=O)c1cc2cc(OCCCOC)cc(N)c2[nH]1" ) is 139 to 140 °C

# melting point (compound: "CC(C)(C)OC(=O)N1CCc2cc(-c3ccc(Cl)cc3)ccc2C1" ) is 88.5 to 90.5 °C
